meta.source: the supplement of paper PMC8967900

Please respond with reported selective drug sensitivity score for every item in the list.
- Test system: MHH-CALL-3;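 further: ALL cell lines in 384-well plates, five doses spanning 10,000-fold, each plate scaled between vehicle and 100 µmol/L benzalkonium chloride controls, sDSS an adapted area-under-curve metric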
- Protocol description: selective drug sensitivity score (sDSS, relative to normal bone marrow) (sDSS (score)); higher = more potent and effective on the cell line relative to normal bone marrow cells
- Condition notes: 72 h

## Task Sample O=C1Cc2cc(C(=O)NC3C[C@H]4CC[C@@H](C3)N4S(=O)(=O)CC3CCN(CCCC(F)(F)F)CC3)c(Cl)cc2N1 (stereo partly specified) (top concentration 10000 nM) — what was its selective drug sensitivity score?
## Result 0

## Task Sample CNC(=O)c1ccccc1Nc1nc(Nc2ccc3c(c2OC)CCC[C@H](N2CCN(CCO)CC2)C3)ncc1Cl (top concentration 5000 nM) — what was its selective drug sensitivity score?
## Result -1.94

## Task Sample CC/C(=C(\c1ccc(O)cc1)c1ccc(OCCN(C)C)cc1)c1ccccc1 [4-hydroxytamoxifen] (top concentration 10000 nM) — what was its selective drug sensitivity score?
## Result -2.58

## Task Sample CCCC(CCC)C(=O)O [Valproic_acid] (top concentration 1000000 nM) — what was its selective drug sensitivity score?
## Result 0

## Task Sample CNC(=O)c1cc(COc2nnc(Nc3ccc(Cl)cc3)c3ccoc23)ccn1 [Telatinib] (top concentration 10000 nM) — what was its selective drug sensitivity score?
## Result 0

## Task Sample CC[C@H](NC(=O)[C@H](C)NC)C(=O)N1C[C@@H](O)C[C@H]1Cc1c(-c2[nH]c3cc(F)ccc3c2C[C@@H]2C[C@H](O)CN2C(=O)[C@H](CC)NC(=O)[C@H](C)NC)[nH]c2cc(F)ccc12 [Birinapant] (top concentration 1000 nM) — what was its selective drug sensitivity score?
## Result -5.1
